- System: gelatinase A (Homo sapiens, UniProt P08253)
- Construct: endogenous in cells
- Sequence (P08253 110-660): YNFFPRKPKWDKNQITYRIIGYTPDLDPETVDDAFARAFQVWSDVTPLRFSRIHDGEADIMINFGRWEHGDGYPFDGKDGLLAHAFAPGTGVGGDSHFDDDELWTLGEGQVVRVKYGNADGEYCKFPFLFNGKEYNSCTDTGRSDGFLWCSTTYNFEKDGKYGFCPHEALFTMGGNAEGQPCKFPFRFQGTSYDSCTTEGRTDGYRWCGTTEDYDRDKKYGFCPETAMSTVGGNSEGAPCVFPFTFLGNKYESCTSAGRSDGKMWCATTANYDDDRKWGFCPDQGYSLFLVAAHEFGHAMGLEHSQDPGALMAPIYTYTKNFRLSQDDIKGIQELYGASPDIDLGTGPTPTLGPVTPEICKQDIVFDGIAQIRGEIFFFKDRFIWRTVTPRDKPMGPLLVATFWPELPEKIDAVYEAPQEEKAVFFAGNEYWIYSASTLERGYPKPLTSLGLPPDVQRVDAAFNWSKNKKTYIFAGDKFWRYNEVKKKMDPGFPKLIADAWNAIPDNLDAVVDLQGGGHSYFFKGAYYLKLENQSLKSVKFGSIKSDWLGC
- Test method notes: Inhibitory activity against gelatinase A
- Condition set: progelatinase A from human normal skin dermal fibroblasts (HNDF), APMA-activated; fluorogenic substrate MOCAc-Pro-Leu-Gly-A2pr(Dnp)-Ala-Arg-NH2 13.5 μM, 37° C.
- Procedure: (1) Inhibitory Activity Against Gelatinase A The progelatinase A (5 μl; in assay buffer (40 μl)) was purified from human normal skin dermal fibroblasts (HNDF). It was activated by the addition of 10 mM of p-aminophenylmercuric acetate (APMA) ([…]) for 1 hour at 37° C. […]
pIC50: −log10 of the molar value.
Measure name: pIC50

>  <Compound>
CCOCOC[C@H](C[C@H](C)C(=O)NO)NC(=O)c1ccc(Oc2ccccc2)cc1

>  <System>
gelatinase A (Homo sapiens, UniProt P08253)

>  <Value measured>
9.30

$$$$
